Test system: Escherichia coli
Procedure Text: Antibacterial activity against Escherichia coli ATCC 25922 by agar cup-plate method relative to penicillin-G
Format: functional
Design: concentration or dose not given beside the values
This section presents compounds with their documented Activity values.
Supply the numeric figure in %, leaving out any unit text.

Item O=c1c2cc(I)ccc2nc(Cc2ccccc2Nc2ccccc2)n1NC1=NNC(c2cccc(Cl)c2)C1 (stereo not drawn) : provide Activity 40.81

Item O=c1c2cc(I)ccc2nc(Cc2ccccc2Nc2ccccc2)n1NC1=NNC(c2ccc(Cl)cc2)C1 (stereo not drawn) : provide Activity 40.81

Item O=c1c2cc(I)ccc2nc(Cc2ccccc2Nc2ccccc2)n1NC1=NNC(c2ccccc2[N+](=O)[O-])C1 (stereo not drawn) : provide Activity 47.67

Item COc1ccc(C2CC(Nn3c(Cc4ccccc4Nc4ccccc4)nc4ccc(I)cc4c3=O)=NN2)cc1 (stereo not drawn) : provide Activity 57.71

Item COc1ccccc1C1CC(Nn2c(Cc3ccccc3Nc3ccccc3)nc3ccc(I)cc3c2=O)=NN1 (stereo not drawn) : provide Activity 52.45

Item O=c1c2cc(I)ccc2nc(Cc2ccccc2Nc2ccccc2)n1NC1=NNC(c2ccccc2)C1 (stereo not drawn) : provide Activity 40.81

Item CN(C)c1ccc(C2CC(Nn3c(Cc4ccccc4Nc4ccccc4)nc4ccc(I)cc4c3=O)=NN2)cc1 (stereo not drawn) : provide Activity 40.81

Item O=c1c2cc(I)ccc2nc(Cc2ccccc2Nc2ccccc2)n1NC1=NNC(c2ccccc2Cl)C1 (stereo not drawn) : provide Activity 44.45

Item O=c1c2cc(I)ccc2nc(Cc2ccccc2Nc2ccccc2)n1NC1=NNC(c2ccc(O)cc2)C1 (stereo not drawn) : provide Activity 32.33

Item O=c1c2cc(I)ccc2nc(Cc2ccccc2Nc2ccccc2)n1NC1=NNC(c2cccc(O)c2)C1 (stereo not drawn) : provide Activity 34.11

Item O=c1c2cc(I)ccc2nc(Cc2ccccc2Nc2ccccc2)n1NC1=NNC(c2ccc([N+](=O)[O-])cc2)C1 (stereo not drawn) : provide Activity 54.75

Item O=c1c2cc(I)ccc2nc(Cc2ccccc2Nc2ccccc2)n1NC1=NNC(c2ccccc2O)C1 (stereo not drawn) : provide Activity 34.11

Item O=c1c2cc(I)ccc2nc(Cc2ccccc2Nc2ccccc2)n1NC1=NNC(c2cccc([N+](=O)[O-])c2)C1 (stereo not drawn) : provide Activity 62.3

###

Test system: Pseudomonas aeruginosa
Procedure Text: Antibacterial activity against Pseudomonas aeruginosa ATCC 9027 at 100 ug/ml by agar cup-plate method
Type: functional
Condition Label: read-out: IZ
Experimental Endpoint: zone of inhibition at 100 µg/mL (mm)
Supply the numeric figure in mm, leaving out any unit text.

The following compounds have reported results that may help.
O=c1c2cc(I)ccc2nc(Cc2ccccc2Nc2ccccc2)n1NC1=NNC(c2ccc(O)cc2)C1 (stereo not given)	9
O=c1c2cc(I)ccc2nc(Cc2ccccc2Nc2ccccc2)n1NC1=NNC(c2cccc([N+](=O)[O-])c2)C1 (stereo not given)	19

Item O=c1c2cc(I)ccc2nc(Cc2ccccc2Nc2ccccc2)n1NC1=NNC(c2cccc(Cl)c2)C1 (stereo not given) : provide zone of inhibition at 100 µg/mL 6

Item O=c1c2cc(I)ccc2nc(Cc2ccccc2Nc2ccccc2)n1NC1=NNC(c2ccccc2Cl)C1 (stereo not given) : provide zone of inhibition at 100 µg/mL 7

Item O=c1c2cc(I)ccc2nc(Cc2ccccc2Nc2ccccc2)n1NC1=NNC(c2ccc(Cl)cc2)C1 (stereo not given) : provide zone of inhibition at 100 µg/mL 7

Item O=c1c2cc(I)ccc2nc(Cc2ccccc2Nc2ccccc2)n1NC1=NNC(c2cccc(O)c2)C1 (stereo not given) : provide zone of inhibition at 100 µg/mL 10

Item COc1ccccc1C1CC(Nn2c(Cc3ccccc3Nc3ccccc3)nc3ccc(I)cc3c2=O)=NN1 (stereo not given) : provide zone of inhibition at 100 µg/mL 17

Item CC1(C)S[C@@H]2[C@H](NC(=O)Cc3ccccc3)C(=O)N2[C@H]1C(=O)O [PENICILLIN G] : provide zone of inhibition at 100 µg/mL 28

Item COc1ccc(C2CC(Nn3c(Cc4ccccc4Nc4ccccc4)nc4ccc(I)cc4c3=O)=NN2)cc1 (stereo not given) : provide zone of inhibition at 100 µg/mL 19

Item O=c1c2cc(I)ccc2nc(Cc2ccccc2Nc2ccccc2)n1NC1=NNC(c2ccc([N+](=O)[O-])cc2)C1 (stereo not given) : provide zone of inhibition at 100 µg/mL 17
